Cited source: patent US20040005537A1

Tested on: rat heart tissue
assay_overview: GENECALLING differential gene expression analysis after dosing of serotonin modulating agents
Type: in vivo, Sprague Dawley rats
condition_context: CARDIOTOX 91, GenBank U10357
Tag: true if measured Effects on Transcription Level: Pyruvate dehydrogenase kinase 2 (PDK2) is not below -7 fold, false if it is.

compound	category_label
CC(C)CC(N(C)C)C1(c2ccc(Cl)cc2)CCC1 (stereo not drawn) [sibutramine]	false
CN1C[C@H](C(=O)N[C@]2(C)O[C@@]3(O)[C@@H]4CCCN4C(=O)[C@H](Cc4ccccc4)N3C2=O)C[C@@H]2c3cccc4[nH]cc(c34)C[C@H]21 [dihydroergotamine]	true
CNCCC(Oc1ccc(C(F)(F)F)cc1)c1ccccc1 (stereo not drawn) [fluoxetine]	false
CNS(=O)(=O)Cc1ccc2[nH]cc(CCN(C)C)c2c1 [sumatriptan]	true
CCNC(C)Cc1cccc(C(F)(F)F)c1 (stereo not drawn) [fenfluramine]	false

---

Parameter: Effects on Transcription Level: Cystatin beta. Scope: all listed entries.
Tested on: rat heart tissue
assay_overview: GENECALLING differential gene expression analysis after dosing of serotonin modulating agents
Format: in vivo, Sprague Dawley rats
condition_context: CARDIOTOX 110, GenBank X54737
recorded_endpoint: Effects on Transcription Level: Cystatin beta

molecule	experimental_value
CC(C)CC(N(C)C)C1(c2ccc(Cl)cc2)CCC1 (stereo not drawn) [sibutramine]	+3.1 fold
CNS(=O)(=O)Cc1ccc2[nH]cc(CCN(C)C)c2c1 [sumatriptan]	+2.5 fold
CN1C[C@H](C(=O)N[C@]2(C)O[C@@]3(O)[C@@H]4CCCN4C(=O)[C@H](Cc4ccccc4)N3C2=O)C[C@@H]2c3cccc4[nH]cc(c34)C[C@H]21 [dihydroergotamine]	+2.6 fold
CNCCC(Oc1ccc(C(F)(F)F)cc1)c1ccccc1 (stereo not drawn) [fluoxetine]	+2.5 fold
CCN[C@@H](C)Cc1cccc(C(F)(F)F)c1 [dexfenfluramine]	+2.5 fold
CCNC(C)Cc1cccc(C(F)(F)F)c1 (stereo not drawn) [fenfluramine]	+2.7 fold

---

In this section, each of the compounds is paired with its reported Effects on Transcription Level: Novel gene fragment, 730 bp, 86% SI to mouse E800 [Y10968].
Tested on: rat heart tissue
assay_overview: GENECALLING differential gene expression analysis after dosing of serotonin modulating agents
Format: in vivo, Sprague Dawley rats
condition_context: CARDIOTOX 84
recorded_endpoint: Effects on Transcription Level: Novel gene fragment, 730 bp, 86% SI to mouse E800 [Y10968] (fold)

compound	unit_abbreviation	experimental_value
CC(C)CC(N(C)C)C1(c2ccc(Cl)cc2)CCC1 (stereo not drawn)	fold	−2.1
CNCCC(Oc1ccc(C(F)(F)F)cc1)c1ccccc1 (stereo not drawn)	fold	−1.8
CN1C[C@H](C(=O)N[C@]2(C)O[C@@]3(O)[C@@H]4CCCN4C(=O)[C@H](Cc4ccccc4)N3C2=O)C[C@@H]2c3cccc4[nH]cc(c34)C[C@H]21 [dihydroergotamine]	fold	−1.7
CCNC(C)Cc1cccc(C(F)(F)F)c1 (stereo not drawn)	fold	−2.4
CCN[C@@H](C)Cc1cccc(C(F)(F)F)c1	fold	−2.0
CNS(=O)(=O)Cc1ccc2[nH]cc(CCN(C)C)c2c1	fold	−2.8

---

Test system: rat heart tissue
assay_overview: GENECALLING differential gene expression analysis after dosing of serotonin modulating agents
Format: in vivo, Sprague Dawley rats
condition_context: CARDIOTOX 43, GenBank U90725
Description: Control animals received sterile water or canola oil. The animals were sacrificed 24 hours following the last dose. Liver tissue was dissected from the animals, and total RNA was recovered from the dissected tissue. cDNA was prepared and the resulting samples were processed through using GENECALLING™ differential expression analysis as described in U.S. Pat. No. 5,871,697 and in Shimkets et al., Nature Biotechnology 17:798-803 (1999). […]
Quick list: Effects on Transcription Level: Caveolae-associated protein per entry.
recorded_endpoint: Effects on Transcription Level: Caveolae-associated protein

molecule	experimental_value
CC(C)CC(N(C)C)C1(c2ccc(Cl)cc2)CCC1 (stereo not drawn)	−1.0 fold
CCN[C@@H](C)Cc1cccc(C(F)(F)F)c1	+3.0 fold
CNS(=O)(=O)Cc1ccc2[nH]cc(CCN(C)C)c2c1	+3.1 fold
CCNC(C)Cc1cccc(C(F)(F)F)c1 (stereo not drawn)	+1.5 fold
CNCCC(Oc1ccc(C(F)(F)F)cc1)c1ccccc1 (stereo not drawn)	+1.3 fold
CN1C[C@H](C(=O)N[C@]2(C)O[C@@]3(O)[C@@H]4CCCN4C(=O)[C@H](Cc4ccccc4)N3C2=O)C[C@@H]2c3cccc4[nH]cc(c34)C[C@H]21 [dihydroergotamine]	+1.3 fold

---

Tested on: rat heart tissue
assay_overview: GENECALLING differential gene expression analysis after dosing of serotonin modulating agents
Assay type: in vivo, Sprague Dawley rats
condition_context: CARDIOTOX 128, GenBank L12380
# Effects on Transcription Level: ADP-ribosylation factor 1 per record follows
recorded_endpoint: Effects on Transcription Level: ADP-ribosylation factor 1

molecule	experimental_value
CNS(=O)(=O)Cc1ccc2[nH]cc(CCN(C)C)c2c1 [sumatriptan]	+1.3 fold
CNCCC(Oc1ccc(C(F)(F)F)cc1)c1ccccc1 (stereo not drawn) [fluoxetine]	−1.0 fold
CN1C[C@H](C(=O)N[C@]2(C)O[C@@]3(O)[C@@H]4CCCN4C(=O)[C@H](Cc4ccccc4)N3C2=O)C[C@@H]2c3cccc4[nH]cc(c34)C[C@H]21 [dihydroergotamine]	+1.3 fold
CCNC(C)Cc1cccc(C(F)(F)F)c1 (stereo not drawn) [fenfluramine]	+1.2 fold
CC(C)CC(N(C)C)C1(c2ccc(Cl)cc2)CCC1 (stereo not drawn) [sibutramine]	−2.0 fold
CCN[C@@H](C)Cc1cccc(C(F)(F)F)c1 [dexfenfluramine]	+1.1 fold

---

Test system: rat heart tissue
assay_overview: GENECALLING differential gene expression analysis after dosing of serotonin modulating agents
Type: in vivo, Sprague Dawley rats
condition_context: CARDIOTOX 117, GenBank AF084186
Quick reference for Effects on Transcription Level: Alpha-fodrin (A2A) (Nonerythroid spectrin alpha subunit) among some compounds
recorded_endpoint: Effects on Transcription Level: Alpha-fodrin (A2A) (Nonerythroid spectrin alpha subunit) (fold)

compound	experimental_value
CCN[C@@H](C)Cc1cccc(C(F)(F)F)c1	−1.7
CNCCC(Oc1ccc(C(F)(F)F)cc1)c1ccccc1 (stereo not drawn)	−1.6
CNS(=O)(=O)Cc1ccc2[nH]cc(CCN(C)C)c2c1	−1.7
CN1C[C@H](C(=O)N[C@]2(C)O[C@@]3(O)[C@@H]4CCCN4C(=O)[C@H](Cc4ccccc4)N3C2=O)C[C@@H]2c3cccc4[nH]cc(c34)C[C@H]21 [dihydroergotamine]	−1.5
CCNC(C)Cc1cccc(C(F)(F)F)c1 (stereo not drawn)	−1.8

---

Test system: rat heart tissue
assay_overview: GENECALLING differential gene expression analysis after dosing of serotonin modulating agents
Type: in vivo, Sprague Dawley rats
condition_context: CARDIOTOX 30
Effects on Transcription Level: Novel gene fragment, 717 bp by entry:
recorded_endpoint: Effects on Transcription Level: Novel gene fragment, 717 bp

compound	subject_of_test	experimental_value
CN1C[C@H](C(=O)N[C@]2(C)O[C@@]3(O)[C@@H]4CCCN4C(=O)[C@H](Cc4ccccc4)N3C2=O)C[C@@H]2c3cccc4[nH]cc(c34)C[C@H]21 [dihydroergotamine]	rat heart tissue	+1.2 fold
CNS(=O)(=O)Cc1ccc2[nH]cc(CCN(C)C)c2c1 [sumatriptan]	rat heart tissue	+1.5 fold
CNCCC(Oc1ccc(C(F)(F)F)cc1)c1ccccc1 (stereo not drawn) [fluoxetine]	rat heart tissue	+1.2 fold
CC(C)CC(N(C)C)C1(c2ccc(Cl)cc2)CCC1 (stereo not drawn) [sibutramine]	rat heart tissue	+1.2 fold
CCN[C@@H](C)Cc1cccc(C(F)(F)F)c1 [dexfenfluramine]	rat heart tissue	+1.5 fold
CCNC(C)Cc1cccc(C(F)(F)F)c1 (stereo not drawn) [fenfluramine]	rat heart tissue	+1.6 fold

---

Tested on: rat heart tissue
assay_overview: GENECALLING differential gene expression analysis after dosing of serotonin modulating agents
Format: in vivo, Sprague Dawley rats
condition_context: CARDIOTOX 52
recorded_endpoint: Effects on Transcription Level: Novel gene fragment, 153 bp (fold)

compound	unit_abbreviation	experimental_value
CCNC(C)Cc1cccc(C(F)(F)F)c1 (stereo not drawn)	fold	−1.7
CNCCC(Oc1ccc(C(F)(F)F)cc1)c1ccccc1 (stereo not drawn)	fold	−1.4
CN1C[C@H](C(=O)N[C@]2(C)O[C@@]3(O)[C@@H]4CCCN4C(=O)[C@H](Cc4ccccc4)N3C2=O)C[C@@H]2c3cccc4[nH]cc(c34)C[C@H]21 [dihydroergotamine]	fold	−1.7
CC(C)CC(N(C)C)C1(c2ccc(Cl)cc2)CCC1 (stereo not drawn)	fold	−1.2
CNS(=O)(=O)Cc1ccc2[nH]cc(CCN(C)C)c2c1	fold	−1.7
CCN[C@@H](C)Cc1cccc(C(F)(F)F)c1	fold	−1.7

---

System: rat heart tissue
assay_overview: GENECALLING differential gene expression analysis after dosing of serotonin modulating agents
Assay type: in vivo, Sprague Dawley rats
condition_context: CARDIOTOX 97, GenBank M17083
Quick reference for Effects on Transcription Level: Alpha-globin among some molecules
recorded_endpoint: Effects on Transcription Level: Alpha-globin

molecule	experimental_value
CC(C)CC(N(C)C)C1(c2ccc(Cl)cc2)CCC1 (stereo not drawn) [sibutramine]	+7.0 fold
CNCCC(Oc1ccc(C(F)(F)F)cc1)c1ccccc1 (stereo not drawn) [fluoxetine]	+2.9 fold
CN1C[C@H](C(=O)N[C@]2(C)O[C@@]3(O)[C@@H]4CCCN4C(=O)[C@H](Cc4ccccc4)N3C2=O)C[C@@H]2c3cccc4[nH]cc(c34)C[C@H]21 [dihydroergotamine]	+3.9 fold
CCN[C@@H](C)Cc1cccc(C(F)(F)F)c1 [dexfenfluramine]	+3.0 fold
CNS(=O)(=O)Cc1ccc2[nH]cc(CCN(C)C)c2c1 [sumatriptan]	+3.8 fold
CCNC(C)Cc1cccc(C(F)(F)F)c1 (stereo not drawn) [fenfluramine]	+3.4 fold
